System: eNOS promoter
Test: Activation of eNOS transcription (eNOS promoter-luciferase reporter, human endothelial cell line)
Format: cell-based
Conditions: human endothelial cell line stably transfected with eNOS promoter-luciferase construct, 18 h incubation, determined graphically; read-out: EC50 values of transcription induction ratios (TIR)
Description: A) Activation of eNOS Transcription Activation of eNOS transcription was measured as described in detail by Li et al., “Activation of protein kinase C alpha and/or epsilon enhances transcription of the human endothelial nitric oxide synthase gene”, Mol. Pharmacol. 53 (1998) 630. […] All compounds were dissolved in sterile dimethyl sulfoxide (DMSO). […] EC50 values of transcription induction ratios as a function of compound concentration were determined graphically.
metric: EC50

# example entries with known answers
# structureSmilesString, EC50
measured = [
    ("Cc1ccc(-c2nc3cc(/C(N)=N/O)ccc3[nH]2)cc1", "< 0.5 µM"),
    ("CC(C)OC(=O)O/N=C(\\N)c1ccc2[nH]c(-c3ccc(F)cc3)nc2c1", "< 0.5 µM"),
    ("CCOC(=O)O/N=C(\\N)c1ccc2[nH]c(-c3ccc(F)cc3)nc2c1", "< 0.5 µM"),
]

Here's the next entry for you.
[Q] Query (compound): COC(=O)O/N=C(\N)c1ccc2[nH]c(-c3ccc(F)cc3)nc2c1 ; field requested: EC50
[A] < 0.5 µM
